Would you kindly list composite z-score for each of these compounds?
molecular target: Torsin-1A (Homo sapiens) (UniProt O14656); assay: small-molecule binders of mutant TOR1A in lysate, primary screen, cell lysate, small-molecule microarray, COS7 lysate, 635/667 nm fluorescence (AID 1150); settings: COS7 hTOR1A mutant lysate, 635 nm fluorescence, higher = more signal;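 further: score pools 667 nm emission and signal to noise measuring lysate protein binding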
Sequence (O14656 whole entry, looked up): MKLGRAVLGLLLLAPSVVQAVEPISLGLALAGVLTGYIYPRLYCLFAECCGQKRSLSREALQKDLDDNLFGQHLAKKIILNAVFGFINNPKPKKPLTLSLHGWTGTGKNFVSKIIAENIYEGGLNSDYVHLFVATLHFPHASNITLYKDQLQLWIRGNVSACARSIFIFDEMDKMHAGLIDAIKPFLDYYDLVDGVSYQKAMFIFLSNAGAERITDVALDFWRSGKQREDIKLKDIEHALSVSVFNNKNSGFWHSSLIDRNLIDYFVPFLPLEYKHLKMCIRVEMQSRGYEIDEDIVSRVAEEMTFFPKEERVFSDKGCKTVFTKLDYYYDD
One number for each entry.

Observe how each entry below is paired with its result.
Look up composite z-score with Torsin-1A (Homo sapiens) (UniProt O14656) for this compound: `CC(=O)OC[C@H]1O[C@H](CCON=C(C)CCN2CCCc3nc(C)c(C)cc32)C=C[C@@H]1OC(C)=O`
1.17

How about this compound: `COc1ccc(COC(=O)NN=C2C[C@@H](O)[C@@H](O)[C@@H]3[C@@H]4C(=O)N(c5cccc(Oc6ccccc6)c5)C(=O)[C@@H]4CC[C@H]23)cc1`
-0.144

Another compound to check: `CCN1C(=O)[C@H]2[C@@H]3C(=CC[C@H]2C1=O)C(=O)[C@H]1O[C@H]1[C@H]3O`
0.348

Can you handle `CC(=O)OC[C@H]1O[C@@H](ON=C(C)CCN2CCCCc3nc(C)c(C)cc32)[C@H](OC(C)=O)[C@@H](OC(C)=O)[C@@H]1OC(C)=O` next?
1.12

`CC(CCN1CCCc2nc(C)c(C)cc21)=NOC[C@@H](C)[C@H](OCc1ccccc1)C(C)C` , same question.
-0.931

Entry CCOC(=O)[C@H](Cc1ccccc1)NC(=O)CCC1CC(OC(=O)NCCc2ccc(F)cc2)CC2(CCCC(COC(=O)NCCOc3ccccc3)O2)O1 (some centres not stated) please
1.11

Give composite z-score for each listed item.
1. CC(C)CON=C1C[C@@H](O)[C@@H](O)[C@@H]2[C@@H]3C(=O)N(c4ccc(F)cc4F)C(=O)[C@@H]3CC[C@@H]12
2. CCN1C(=O)[C@H]2[C@H]3[C@H](O)[C@H](O)CC(=NOCC[C@@H]4C=C[C@H](OC(C)=O)[C@@H](COC(C)=O)O4)[C@@H]3CC[C@H]2C1=O
3. COC(=O)CC=C1c2ccccc2[C@H](OC)[C@H]1C
4. C#CCCCON=C1C[C@@H](O)[C@@H](O)[C@@H]2[C@@H]3C(=O)N(C[C@@H]4CCCO4)C(=O)[C@@H]3CC[C@@H]12
5. C=CCOCC1CN2[C@@H](CC[C@@H](C)[C@@H]2c2ccc(Br)cc2)C(=O)O1 (some centres not stated)
6. CCOC(=O)[C@H](CC(C)C)NC(=O)CCC1CC(OC(=O)NCCc2ccc(F)cc2)CC2(CCCC(COC(=O)NCCOC)O2)O1 (some centres not stated)
7. CC(C)C(=O)N[C@H]1CCCN1C(=O)C=Cc1ccccc1
8. CCOC(=O)CCN1C(=O)[C@H]2[C@H]3[C@H](O)[C@H](O)CC(=NOCC=C(C)CCC=C(C)C)[C@@H]3CC[C@H]2C1=O

0.218
0.296
-0.127
0.28
0.499
0.259
0.231
0.588

----------
tested on: XIP peptide (Xip251-270) binding; assay: small-molecule binders of XIP peptide, primary screen, biochemical, small-molecule microarray, fluorescence 635/667 nm, 0.1 µg/mL protein (AID 1182); conditions: fluorescent protein binding, 635 nm, higher = more signal, called active from +8 up or from −8 down
Each entry gets n if its composite z-score stays under 0.1, and y if its composite z-score is 0.1 or above.

# bool: composite z-score of `CO[C@H]1COC(=O)CC=C[C@@H](C)COC(=O)[C@H]2CCCN2C(=O)CC=C[C@H]1C` >= 0.1
n

What do you get for `CON=C[C@@H](OC)[C@H](C)C=CCC(=O)OC` ?
n

Next:
Evaluate `CC(=O)OC[C@H]1O[C@H](CC=NOC[C@@H](O)[C@H]2O[C@@H]3OC(C)(C)O[C@@H]3[C@H]2O)C=C[C@@H]1OC(C)=O` : composite z-score at minimum 0.1?
y

Item: `C=CC[C@@H]1C=C[C@H](ON=C(C)CCN2CCCc3nc(C)c(C)cc32)[C@@H](CO)O1`
y

Same thing, different molecule: CCOC(=O)[C@H](Cc1ccccc1)NC(=O)CCC1CC(OC(=O)NCc2cccc3ccccc23)CC2(CCCC(COC(=O)NCc3ccc4c(c3)OCO4)O2)O1 (stereo not given in full)
n

Repeat with `CC(C)CON=C1C[C@@H](O)[C@@H](O)[C@@H]2[C@@H]3C(=O)N(Cc4ccc5c(c4)OCO5)C(=O)[C@@H]3CC[C@@H]12`
n

Here is the next molecule: COC(=O)[C@H](C)NC(=O)CCC1CC(OC(=O)NCc2cccc3ccccc23)CC2(CCCC(COC(=O)NCCCN3CCCC3=O)O2)O1 (stereo not given in full)
y

----------
target: Epidermal growth factor receptor (Homo sapiens) (UniProt P00533); test: EGFR binders on small-molecule microarrays, primary screen, biochemical, small-molecule microarray, 635 nm fluorescence (AID 1104); details: EGFR binding, higher = more signal;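 further: score merges 667 nm emission intensity with spot signal to noise over triplicate slides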
Sequence (P00533 whole entry, looked up): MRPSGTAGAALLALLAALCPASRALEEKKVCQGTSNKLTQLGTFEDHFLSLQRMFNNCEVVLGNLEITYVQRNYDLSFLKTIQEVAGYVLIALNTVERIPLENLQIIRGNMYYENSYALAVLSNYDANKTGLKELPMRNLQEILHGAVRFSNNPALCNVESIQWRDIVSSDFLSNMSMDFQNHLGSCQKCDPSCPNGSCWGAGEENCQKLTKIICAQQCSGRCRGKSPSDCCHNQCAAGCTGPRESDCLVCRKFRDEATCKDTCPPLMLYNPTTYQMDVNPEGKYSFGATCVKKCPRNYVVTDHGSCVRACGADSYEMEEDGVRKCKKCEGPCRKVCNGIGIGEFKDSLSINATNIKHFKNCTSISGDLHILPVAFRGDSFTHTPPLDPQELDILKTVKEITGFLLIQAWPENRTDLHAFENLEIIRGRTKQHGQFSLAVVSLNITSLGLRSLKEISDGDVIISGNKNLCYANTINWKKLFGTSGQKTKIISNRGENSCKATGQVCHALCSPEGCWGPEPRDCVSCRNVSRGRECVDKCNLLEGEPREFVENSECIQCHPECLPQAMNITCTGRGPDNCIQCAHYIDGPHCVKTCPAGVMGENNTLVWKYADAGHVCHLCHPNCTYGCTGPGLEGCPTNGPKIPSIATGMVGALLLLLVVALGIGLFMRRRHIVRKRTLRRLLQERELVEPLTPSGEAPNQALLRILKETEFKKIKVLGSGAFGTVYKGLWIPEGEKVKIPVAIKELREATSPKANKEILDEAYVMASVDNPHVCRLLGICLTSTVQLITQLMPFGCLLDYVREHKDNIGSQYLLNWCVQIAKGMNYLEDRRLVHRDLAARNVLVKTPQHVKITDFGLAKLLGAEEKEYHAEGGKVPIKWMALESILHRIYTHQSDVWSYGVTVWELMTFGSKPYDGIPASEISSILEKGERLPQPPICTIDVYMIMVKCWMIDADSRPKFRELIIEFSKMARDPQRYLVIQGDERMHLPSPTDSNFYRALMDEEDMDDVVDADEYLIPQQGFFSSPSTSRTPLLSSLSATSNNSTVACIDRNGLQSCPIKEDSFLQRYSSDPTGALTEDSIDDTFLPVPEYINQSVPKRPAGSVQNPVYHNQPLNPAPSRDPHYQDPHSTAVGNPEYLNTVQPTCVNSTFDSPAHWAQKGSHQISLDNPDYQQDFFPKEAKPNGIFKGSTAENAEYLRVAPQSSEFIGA
Response key: True means composite z-score >= 0.4; False means composite z-score < 0.4.

The following compounds have reported results that may help.
Is composite z-score at least 0.4? Consider `CCO[C@H](c1cc(OC)cc([N+](=O)[O-])c1OC)[C@H](C)[C@@H](OC)[C@H](C)C=CCC(=O)OC`
True

Next entry: C[C@@H]1CC[C@H]2C(=O)OC(CN3C(=O)c4ccccc4C3=O)CN2[C@H]1c1ccc(Br)cc1 (stereo not given in full)
False

Then this compound: `CC(CCN1CCCc2nc(C)c(C)cc21)=NOC[C@@H](C)[C@H](OCc1ccccc1)C(C)C`
False

New cases:
Hello, I need to know if `CC(C)=CCCC(C)=CCON=C1C[C@@H](O)[C@@H](O)[C@@H]2[C@@H]3C(=O)N(Cc4ccc5c(c4)OCO5)C(=O)[C@@H]3CC[C@@H]12` has measured composite z-score not below 0.4. Thanks!
True

Similarly, `CC(C)(C)N1C(=O)[C@H]2[C@H]3[C@H](O)[C@H](O)CC(=NOC[C@@H](O)COCc4ccco4)[C@@H]3CC[C@H]2C1=O` ?
False

----------
biological target: Streptavidin (Streptomyces avidinii) (UniProt P22629); test: streptavidin binders on small-molecule microarray, primary screen, artefact control for SMM compound annotation, biophysical, 635/667 nm fluorescence (AID 1147); settings: streptavidin binding, higher = more signal;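 further: signal reflects streptavidin binding to arrayed compounds as a control protein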
Sequence (P22629 whole entry, looked up): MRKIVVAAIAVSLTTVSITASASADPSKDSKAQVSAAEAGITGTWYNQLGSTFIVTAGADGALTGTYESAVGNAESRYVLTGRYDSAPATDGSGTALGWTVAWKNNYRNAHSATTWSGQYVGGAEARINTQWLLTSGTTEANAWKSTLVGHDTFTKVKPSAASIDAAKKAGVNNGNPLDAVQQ
Criterion: composite z-score meeting or surpassing -0.07. Met: fulfilled. Not met: not fulfilled.

State whether the measured composite z-score reaches -0.07, counting equality as reaching it, for `CC(C)=NO[C@H](C)c1cn([C@@H]2COC[C@H]2O)nn1`
not fulfilled

Further cases:
For this compound, is measured composite z-score -0.07 or higher? CC(C)=NOC(C)CN1CCCc2nc(C)c(C)cc21 (configuration not stated)
fulfilled

Continue with `CO[C@@H]1COC(=O)[C@H](COCc2ccccc2)NC(=O)CC=C[C@@H](C)[C@H](OC)COC(=O)[C@@H](C)NC(=O)CC=C[C@H]1C`
not fulfilled

----------
Assign composite z-score to each entry below.
assay: small-molecule binders of probe aLefty1, primary screen, biochemical, small-molecule microarray, 635/667 nm fluorescence (AID 1153); settings: higher = more signal;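 further: score merges spot fluorescence with signal-to-noise ratio from the scanned slide images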
Give bare numbers.

Worked cases, answers included:
# composite z-score lookup, item CCOC(=O)[C@H](Cc1ccccc1)NC(=O)CCC1CC(OC(=O)NCc2ccc3c(c2)OCO3)CC2(CCCC(COC(=O)NCCc3ccc(Cl)cc3)O2)O1 (stereo partly specified)
-0.281

Moving on to `C=CC[C@@H]1C=C[C@H](ON=C(C)CCN2CCCc3nc(C)c(C)cc32)[C@@H](CO)O1`
0.97

Same again, this time with `O=C1[C@H]2[C@H]3[C@H](O)[C@H](O)CC(=NO[C@@H]4O[C@H](CO)[C@@H](O)[C@H](O)[C@H]4O)[C@@H]3CC[C@H]2C(=O)N1C[C@@H]1CCCO1`
-0.0462

Same question, `CON(C)C(=O)c1nnc2c(n1)[nH]c1ccccc12` this time
-0.161

Query CC(C)=NOC(C)CN1CCCc2nc(C)c(C)cc21 (stereo unspecified) next
-0.012

Look up composite z-score for the entries below, preserving their order.
1. CC(CCN1CCCc2nc(C)c(C)cc21)=NO[C@H](C)c1cn([C@@H]2COC[C@H]2O)nn1
2. COC(=O)CC=C[C@@H](C)[C@@H](C=NOC(C)CN1CCCc2nc(C)c(C)cc21)NS(=O)(=O)c1ccc(C)cc1 (stereo partly specified)

[0.184, 0.119]

Hi there! I need composite z-score for each item below, if you can.
1. CCCCOC(OCCCC)C(O)CSc1ccc2ccccc2c1 (stereo unspecified)
2. CO[C@H]1COC(=O)[C@H](CCSC)NC(=O)CC=C[C@@H](C)[C@H](OC)COC(=O)[C@@H](OCc2ccccc2)C=C[C@@H]1C
3. CC(C)[C@@H](OCc1ccccc1)[C@H](C)CON=C1[C@H]2CCn3c(=O)n(-c4ccccc4)c(=O)n3[C@H]2[C@H](O)[C@@H]2O[C@H]12
4. CO[C@H]1COC(=O)CC=C[C@H](C)[C@H](OC)COC(=O)[C@@H](C)NC(=O)CC=C[C@@H]1C
5. COC(=O)[C@H](C)NC(=O)CCC1CC(OC(=O)NCc2ccc3c(c2)OCO3)CC2(CCCC(COC(=O)NCCC(C)C)O2)O1 (stereo partly specified)
6. CC(C)=NO[C@H](C)c1cn([C@@H]2COC[C@H]2O)nn1
7. CCOC(=O)CCN1C(=O)[C@H]2[C@H]3[C@H](O)[C@H](O)CC(=NOCC=C(C)CCC=C(C)C)[C@@H]3CC[C@H]2C1=O
8. CCOC(=O)NN=C1C[C@@H](O)[C@@H](O)[C@@H]2[C@@H]3C(=O)N(c4ccc(F)cc4F)C(=O)[C@@H]3CC[C@H]12

1. -0.103
2. -0.173
3. -0.186
4. -0.0939
5. 0.0774
6. -0.0518
7. -0.193
8. -0.0106

Fill blank: measured composite z-score of the compound `CC(CCN1CCc2nc(-c3ccccc3)c(-c3ccccc3)cc2C1)=NO[C@@H](C)c1cc(-c2c(C)cc(C)cc2C)no1` is ____.
-0.0099
